molecular target: hPAD4 enzyme (Homo sapiens (Human), UniProt Q9UM07); assay: RFMS2 assay (RapidFire mass spectrometry, TSTGGRQGSHH peptide substrate); format: biochemical; details: 35 nM recombinant human PAD4, 500 μM TSTGGRQGSHH peptide, 30 minutes at room temperature; read-out: RFMS 2 IC50
Sequence (Q9UM07 whole entry): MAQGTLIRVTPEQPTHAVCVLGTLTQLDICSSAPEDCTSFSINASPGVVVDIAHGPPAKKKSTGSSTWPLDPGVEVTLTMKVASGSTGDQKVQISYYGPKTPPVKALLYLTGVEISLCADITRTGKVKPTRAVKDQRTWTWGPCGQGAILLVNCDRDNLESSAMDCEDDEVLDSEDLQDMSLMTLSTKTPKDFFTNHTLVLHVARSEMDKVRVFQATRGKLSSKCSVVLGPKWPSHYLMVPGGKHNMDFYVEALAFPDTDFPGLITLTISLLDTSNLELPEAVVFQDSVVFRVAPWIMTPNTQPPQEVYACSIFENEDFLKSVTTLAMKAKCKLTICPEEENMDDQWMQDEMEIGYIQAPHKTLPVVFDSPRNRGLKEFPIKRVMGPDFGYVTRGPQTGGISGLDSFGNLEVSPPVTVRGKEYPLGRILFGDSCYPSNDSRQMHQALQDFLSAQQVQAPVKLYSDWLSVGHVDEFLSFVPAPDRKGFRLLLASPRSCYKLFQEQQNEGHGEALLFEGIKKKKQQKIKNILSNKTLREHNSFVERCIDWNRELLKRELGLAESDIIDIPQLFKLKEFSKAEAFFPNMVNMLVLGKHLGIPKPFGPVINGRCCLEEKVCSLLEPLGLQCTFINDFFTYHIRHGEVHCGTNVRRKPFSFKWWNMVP
Assign IC50 to each entry below.

Incoming: What value of IC50 has been recorded for this entry: C[C@@H](N)CN1CCc2cc3c(cc2C1=O)nc(-c1cc2ccccc2n1Cc1ccccc1)n3C [Example 78]
Outgoing: 0.101 to 0.5 µM

Incoming: // repeat for Cn1c(-c2cc3ccccc3n2CC2CC2)nc2cc3c(c(F)c21)CCN(C[C@H](N)CF)C3=O [Example 236] and report
Outgoing: 0.501 to 1 µM

Incoming: Quick one: COc1cccc2cc(-c3nc4cc5c(cc4n3C)CCN(C[C@H](N)CF)C5=O)n(Cc3cc(N)no3)c12 [Example 146]
Outgoing: 0.101 to 0.5 µM

Incoming: Also, COCC(C)c1ccc2cc(-c3nc4cc5c(cc4n3C)CCN(C[C@@H](C)N)C5=O)n(CC3CC3)c2c1 (single isomer, unassigned) [Example 40] please.
Outgoing: > 1 µM

Incoming: Next record, please: CN[C@H](C)CN1CCc2cc3c(cc2C1=O)nc(-c1cc2cccc(OC)c2n1CC1CC1)n3C [Example 37]
Outgoing: 0.101 to 0.5 µM

Incoming: Please give the result for COCCn1c(-c2nc3cc4c(cc3n2C)CCN(C[C@@H](C)N)C4=O)cc2cccc(C)c21 [Example 87] too.
Outgoing: 0.501 to 1 µM

Incoming: Thanks! And Cn1c(-c2cc3cccc(OCC(C)(C)O)c3n2CC2CC2)nc2cc3c(cc21)CCN(C[C@H](N)CF)C3=O [Example 214] ?
Outgoing: 0.501 to 1 µM

Incoming: Param item: COc1cccc2cc(-c3nc4cc5c(cc4n3C)CCN(C[C@H](N)[C@H](C)F)C5=O)n(CC3CC3)c12 [Example 15a]
Outgoing: 0.101 to 0.5 µM

Incoming: Follow-up entry: COc1cccc2cc(-c3nc4cc5c(cc4n3C)CCN(C[C@H](N)CF)C5=O)n(Cc3cnccn3)c12 [Example 128]
Outgoing: 0.101 to 0.5 µM

Incoming: How about this compound: CC(C)c1ccc2cc(-c3nc4cc5c(cc4n3C)CCN(C[C@H](N)CF)C5=O)n(CC3CC3)c2c1 [Example 51]
Outgoing: 0.101 to 0.5 µM

Incoming: Moving on to the next compound: CNC(=O)c1ccc2cc(-c3nc4cc5c(cc4n3C)CCN(C[C@H](N)CF)C5=O)n(CC3CC3)c2n1 [Example 63]
Outgoing: 0.501 to 1 µM

Incoming: Another compound to look at: COc1ccc2cc(-c3nc4cc5c(cc4n3C)CCN(C[C@H](N)CF)C5=O)n(CC3CC3)c2c1 [Example 50]
Outgoing: 0.101 to 0.5 µM

Incoming: What about Cn1c(-c2cc3cccc(OC[C@H]4CCC(=O)N4)c3n2CC2CC2)nc2cc3c(cc21)CCN(C[C@H](N)CF)C3=O [Example 157] ?
Outgoing: 0.101 to 0.5 µM

Incoming: Then what about the compound Cn1c(-c2cc3cccc(OC[C@@H](O)C(F)(F)F)c3n2CC2CC2)nc2cc3c(cc21)CCN(C[C@H](N)CF)C3=O [Example 215] ?
Outgoing: 0.101 to 0.5 µM
